meta.source: patent US11396517B1

target: menin (Homo sapiens, UniProt O00255, T541A); construct: Menin (a.a. 1-610-6×his tag); assay: Menin/MLL homogenous time-resolved fluorescence (HTRF) assay; type: binding; conditions: location 2; read-out: (2) location 2 Menin HTRF assay (IC50 (nM))
Classification field. Basis: IC50. Definitions: low bracket (below 50 nM), middle bracket (50 nM to below 100 nM), high bracket (100 nM or more)

Solved cases (3 shown):
QUERY: Into which bin does this compound go? FC(F)(F)Cc1cc2c(N3CCC4(CCC(Nc5ccccc5)C4)C3)ncnc2s1 (single isomer, unassigned) [Compound 34]
RESULT: high bracket

QUERY: Next up: CNC(=O)c1ccc(N[C@H]2CC[C@@]3(CCN(c4ncnc5sc(CC(F)(F)F)cc45)C3)C2)cc1 (stereo in doubt)
RESULT: low bracket

QUERY: Next up: CNC(=O)c1ccc(NC2CC3(CCN(c4ncnc5sc(CC(F)(F)F)cc45)C3)C2)cc1F (single isomer, unassigned) [Compound 205]
RESULT: low bracket

Continuing:
QUERY: Into which bin does this compound go? CNC(=O)c1cnc(NC2CC3(CCN(c4ncnc5sc(CC(F)(F)F)cc45)C3)C2)nc1 (mixture of isomers)
RESULT: low bracket

QUERY: Next up: O=C(c1ccc(NC2CC3(CCN(c4ncnc5sc(CC(F)(F)F)cc45)C3)C2)cc1)N1CCNCC1 (single isomer, unassigned) [Compound 188]
RESULT: high bracket

QUERY: Next up: CN(C1CC2(CCN(c3ncnc4sc(CC(F)(F)F)cc34)C2)C1)S(=O)(=O)c1ccccc1 (single isomer, unassigned) [Compound 26]
RESULT: high bracket

QUERY: Next up: Cn1c(=O)[nH]c2cc(CNC3CCC4(C3)CN(c3ncnc5sc(CC(F)(F)F)cc35)C4)ccc21 (stereo not shown)
RESULT: low bracket

QUERY: Next up: CC(C)(C#N)c1ccc(NC2CCC3(CCN(c4ncnc5sc(CC(F)(F)F)cc45)C3)C2)cc1 (stereo not shown)
RESULT: middle bracket

QUERY: Next up: O=C1Cc2ccc(N[C@H]3CCC4(C3)CN(c3ncnc5sc(CC(F)(F)F)cc35)C4)cc2N1 (single isomer, unassigned)
RESULT: middle bracket

QUERY: Next up: CN(C)CCNC(=O)c1ccc(NC2CC3(CCN(c4ncnc5sc(CC(F)(F)F)cc45)C3)C2)cc1 (single isomer, unassigned) [Compound 74]
RESULT: middle bracket

QUERY: Next up: O=c1[nH]c2ccc(NC3CCC4(C3)CN(c3ncnc5sc(CC(F)(F)F)cc35)C4)cc2[nH]1 (stereo not shown)
RESULT: middle bracket

QUERY: Next up: CNc1nc(N2CCC3(CC(Nc4ccc5[nH]c(=O)[nH]c5c4)C3)C2)c2cc(CC(F)(F)F)sc2n1 (single isomer, unassigned) [Compound 395]
RESULT: high bracket

---

Target: menin (Homo sapiens, UniProt O00255, T541A)
Construct: Menin (a.a. 1-610-6×his tag)
Sequence (O00255 with tags, fused parts or gaps T541A): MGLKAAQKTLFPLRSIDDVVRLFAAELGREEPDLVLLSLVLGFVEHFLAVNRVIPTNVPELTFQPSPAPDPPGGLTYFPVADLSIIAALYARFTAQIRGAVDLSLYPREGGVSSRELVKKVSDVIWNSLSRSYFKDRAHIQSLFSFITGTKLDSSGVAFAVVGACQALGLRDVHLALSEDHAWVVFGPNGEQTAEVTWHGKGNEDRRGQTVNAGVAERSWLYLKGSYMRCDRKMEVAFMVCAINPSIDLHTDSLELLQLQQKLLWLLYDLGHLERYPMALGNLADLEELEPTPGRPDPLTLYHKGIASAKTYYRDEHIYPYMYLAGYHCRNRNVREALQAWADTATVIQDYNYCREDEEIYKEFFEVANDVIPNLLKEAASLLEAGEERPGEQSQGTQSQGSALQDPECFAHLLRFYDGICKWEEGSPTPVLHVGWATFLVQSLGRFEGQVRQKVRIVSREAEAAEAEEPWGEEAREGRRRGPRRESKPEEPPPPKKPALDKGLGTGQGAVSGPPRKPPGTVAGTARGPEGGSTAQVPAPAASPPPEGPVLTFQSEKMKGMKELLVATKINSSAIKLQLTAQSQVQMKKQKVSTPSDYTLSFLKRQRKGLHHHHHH
Experiment: Menin/MLL homogenous time-resolved fluorescence (HTRF) assay
Type: binding
Settings: location 2; read-out: (2) location 2 Menin HTRF assay (IC50 (nM))
Please respond with reported log10(IC50) for every item in the list.
Lab note - IC50 converted to log10 from values in nM.

QUERY: Which measured log10(IC50) value corresponds to COC[C@@H]1CN(C(=O)c2ccc(NC3CC4(CCN(c5ncnc6sc(CC(F)(F)F)cc56)C4)C3)cc2)CCO1 (single isomer, unassigned) [Compound 410] ?
RESULT: 1.84

QUERY: Next up: CN(C)CCNC(=O)c1ccc(NC2CC3(CCN(c4ncnc5sc(CC(F)(F)F)cc45)C3)C2)c(F)c1 (single isomer, unassigned) [Compound 243]
RESULT: 0.46

QUERY: Next up: FC(F)(F)Cc1cc2c(N3CCC4(CCC(Nc5ccccc5)C4)C3)ncnc2s1 (single isomer, unassigned) [Compound 33]
RESULT: 3.31

Batch request: log10(IC50) per item, same order as input.
1. FC(F)(F)Cc1cc2c(N3CCC4(CC(Nc5ccc(-c6cn[nH]c6)cc5)C4)C3)ncnc2s1 (single isomer, unassigned) [Compound 327]
2. CC(C)(C#N)c1ccc(NC2CC3(CCN(c4ncnc5sc(CC(F)(F)F)cc45)C3)C2)cc1 (stereo not shown)
3. CC(NC1CCC2(C1)CN(c1ncnc3sc(CC(F)(F)F)cc13)C2)c1ccccc1 (stereo not shown)
4. O=c1[nH]c2ccc(NC3CC4(CCN(c5ncnc6sc(CC(F)(F)F)cc56)C4)C3)cc2[nH]1 (single isomer, unassigned) [Compound 321]

RESULT:
1. 0.92
2. 2.63
3. 1.64
4. 2.96

---

target: menin (Homo sapiens, UniProt O00255, T541A); construct: Menin (a.a. 1-610-6×his tag); experiment: Menin/MLL homogenous time-resolved fluorescence (HTRF) assay; format: binding; settings: location 2; read-out: (2) location 2 Menin HTRF assay (IC50 (nM))
Please respond with reported IC50 for every item in the list.
Answers are plain numbers, in nM.

Completed entries (count: 6):
QUERY: Which measured IC50 value corresponds to N#Cc1cccc(NC2CCC3(CCN(c4ncnc5sc(CC(F)(F)F)cc45)C3)C2)c1 (stereo not shown) [Compound 132] ?
RESULT: 180

QUERY: Next up: FC(F)(F)Cc1cc2c(N3CC[C@@]4(CC[C@@H](Nc5ccc(-c6cc[nH]n6)cc5)C4)C3)ncnc2s1 (stereo in doubt) [Compound 139]
RESULT: 3.5

QUERY: Next up: CN1CCN(c2cc(NC3CC4(CCN(c5ncnc6sc(CC(F)(F)F)cc56)C4)C3)ccc2C#N)CC1 (mixture of isomers) [Compound 240]
RESULT: 8.6

QUERY: Next up: CNC(=O)c1ccc(NC2CC3(CCN(c4ncnc5sc(CC(F)(F)F)cc45)C3)C2)nc1 (stereo not shown) [Compound 70]
RESULT: 2.7

QUERY: Next up: CNC(=O)c1ccc(NC2CCC3(C2)CN(c2ncnc4sc(CC(F)(F)F)cc24)C3)cc1 (single isomer, unassigned) [Compound 98]
RESULT: 2.6

QUERY: Next up: O=S(=O)(NC1CC2(CCN(c3ncnc4sc(CC(F)(F)F)cc34)C2)C1)c1ccccc1 (mixture of isomers) [Compound 22]
RESULT: 450

Switching to the query record.
QUERY: Which measured IC50 value corresponds to N#CCc1ccc(NC2CC3(CCN(c4ncnc5sc(CC(F)(F)F)cc45)C3)C2)cc1 (single isomer, unassigned) [Compound 307] ?
RESULT: 3.1

---

Target: menin (Homo sapiens, UniProt O00255, T541A)
Construct: Menin (a.a. 1-610-6×his tag)
Sequence (O00255 with tags, fused parts or gaps T541A): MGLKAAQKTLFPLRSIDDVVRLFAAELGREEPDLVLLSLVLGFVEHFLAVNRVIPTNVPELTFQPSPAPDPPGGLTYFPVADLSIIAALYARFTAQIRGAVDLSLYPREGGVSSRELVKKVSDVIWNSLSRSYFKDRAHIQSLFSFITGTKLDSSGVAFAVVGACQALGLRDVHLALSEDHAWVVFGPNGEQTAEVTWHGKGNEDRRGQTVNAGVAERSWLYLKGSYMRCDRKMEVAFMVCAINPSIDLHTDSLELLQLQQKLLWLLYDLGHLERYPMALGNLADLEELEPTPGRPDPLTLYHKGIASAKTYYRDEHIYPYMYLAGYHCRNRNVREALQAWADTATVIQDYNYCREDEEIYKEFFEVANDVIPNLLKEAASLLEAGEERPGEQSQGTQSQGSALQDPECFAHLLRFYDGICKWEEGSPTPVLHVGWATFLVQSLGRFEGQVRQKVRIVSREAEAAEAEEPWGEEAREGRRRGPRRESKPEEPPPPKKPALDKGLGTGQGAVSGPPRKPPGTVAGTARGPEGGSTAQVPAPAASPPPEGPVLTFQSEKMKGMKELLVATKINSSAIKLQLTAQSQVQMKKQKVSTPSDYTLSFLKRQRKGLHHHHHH
Assay: Menin/MLL homogenous time-resolved fluorescence (HTRF) assay
Assay type: binding
Settings: location 2; read-out: (2) location 2 Menin HTRF assay (IC50 (nM))
experimentalEndpoint: log10(IC50) (log10 of the value in nM)
Lab note - IC50 converted to log10 from values in nM.

Completed entries (count: 5):
QUERY: Which measured log10(IC50) value corresponds to CN1CCN(C(=O)c2ccc(NC3CC4(CCN(c5ncnc6sc(CC(F)(F)F)cc56)C4)C3)cc2)CC1 (single isomer, unassigned) [Compound 337] ?
RESULT: 3.36

QUERY: Next up: N#Cc1ccc(NC2CC3(CCN(c4ncnc5sc(CC(F)(F)F)cc45)C3)C2)cc1 (mixture of isomers)
RESULT: 1.09

QUERY: Next up: FC(F)(F)Cc1cc2c(N3CCC4(CC(Nc5ccccc5)C4)C3)ncnc2s1 (single isomer, unassigned) [Compound 149]
RESULT: 1.57

QUERY: Next up: CN1CCC(c2cc(NC3CC4(CCN(c5ncnc6sc(CC(F)(F)F)cc56)C4)C3)ccc2C#N)CC1 (single isomer, unassigned) [Compound 80]
RESULT: 0.94

QUERY: Next up: O=c1[nH]c2ccc(NCC3CC4(CCN(c5ncnc6sc(CC(F)(F)F)cc56)C4)C3)cc2[nH]1 (mixture of isomers)
RESULT: 2.15

Switching to the query record.
QUERY: Which measured log10(IC50) value corresponds to N#CCc1ccc(C(=O)NC2CCC3(C2)CN(c2ncnc4sc(CC(F)(F)F)cc24)C3)cc1 (stereo not drawn) ?
RESULT: 3.45
